system: UACC-257 melanoma; test: NCI tumour cell line growth inhibition, 48 h
Endpoint Name: TGI

// solved cases for TGI follow
Per the records, this compound ( CO/N=C(/C)COc1ccc2c(c1)oc(=O)c1cc(OC)ccc12 ) has TGI equal to > 100 µM

Per the records, this compound ( Nc1c(F)c(F)c2c(c1F)N(CCCCCl)c1ccccc1S2 ) has TGI equal to > 100 µM

Per the records, this compound ( O=c1[nH][nH]c(=O)n1Cc1ccccc1 ) has TGI equal to > 100 µM

Per the records, this compound ( CCc1ccc(Oc2c(-c3ccc(OCCc4cccc(C(F)(F)F)c4)cc3O)n[nH]c2C(F)(F)F)cc1 ) has TGI equal to 10.6 µM

Per the records, this compound ( COC(=O)c1cc(O)ccc1O ) has TGI equal to > 100 µM

***
Per the records, this compound ( O=C1NC(=Nc2ccc(O)cc2)S/C1=C\c1cccs1 ) has TGI equal to > 100 µM

Per the records, this compound ( CCOc1cc(Cl)c(C(C)NC(=O)c2cccc(OC)c2)cc1OCC (stereo not drawn) ) has TGI equal to > 100 µM

---

tested on: NCI-H460 lung
Your response should consist of one outcome taken from Yes (active), No (inactive)

input: Please indicate how the test categorized Cc1ccc(NC(=S)NNC(=S)Nc2ccc(C)cc2)cc1 .
output: No

input: Please indicate how the test categorized CC(=O)[O-].CC(=O)[O-].O=C([CH-]C(=O)c1ccccc1)c1ccccc1.[Nd+3].[OH3+] .
output: No

input: Please indicate how the test categorized Cc1[nH]c(C(=O)Nc2cccc(OC3CCNCC3)c2)c(Cl)c1Cl .
output: No

Turning now to a further compound:
input: Please indicate how the test categorized CC[C@]12C=CCN3CC[C@@]4(c5ccc(OC)cc5N(C)[C@H]4[C@@](O)(C(=O)OC)[C@@H]1OC(=O)CCC(=O)O[C@H]1CC[C@H]4[C@@H]5CCC6=CC(=O)CC[C@@H]6[C@H]5CC[C@]14C)[C@@H]32 .
output: No

---

Collected TGI values appear next to each entry.
tested on: HT29 colon; experiment: NCI tumour cell line growth inhibition, 48 h
Where a SMILES comes first, the peptide text is derived from it. [ ]: non-standard residue; d: D form. The star is where a group is joined. ξ: configuration not given here. NMeY = CN[C@@H](Cc1ccc(O)cc1)C(=O)O; Cbz = O=C(OCc1ccccc1)*; ξA = CC(N)C(=O)O

Entry Cc1c(-c2coc(-c3ccc([N+](=O)[O-])cc3)n2)c(=O)n(-c2ccccc2)n1C ; assay system HT29 colon; TGI recorded at > 100 µM

Entry C=C(C(=O)c1ccccc1)C(NC(C)(C)C)c1ccccc1 (stereo not given) ; assay system HT29 colon; TGI recorded at 3.13 µM

Entry Nc1[nH]c(=O)nc2c1cnn2COCCO ; assay system HT29 colon; TGI recorded at > 100 µM

Entry COc1cccc(C(=O)NNc2nc(Cl)nc(N3CCN(C(c4ccccc4)c4ccccc4)CC3)n2)c1 ; assay system HT29 colon; TGI recorded at 4.8 µM

***
Entry CC(=O)Oc1ccc2c(=O)c(C(C)=O)coc2c1 ; assay system HT29 colon; TGI recorded at > 100 µM

Entry N#CCCC(C#N)(C#N)CCC#N ; assay system HT29 colon; TGI recorded at > 100 µM

Entry COc1ccc2[nH]c(C(=O)OCc3ccc4c(Br)cc(Br)c(O)c4n3)cc2c1 ; assay system HT29 colon; TGI recorded at 1.49 µM

Entry O=C(O)c1ccc(CSc2nc3ccccc3[nH]2)cc1 ; assay system HT29 colon; TGI recorded at > 100 µM

Entry COc1ccc(C[C@@H](C(=O)N[C@@H](C)C(N)=O)N(C)C(=O)[C@@H]2CCCN2C(=O)[C@H](CC(C)C)NC(=O)C(C)NC(=O)OCc2ccccc2)cc1 (stereo not given in full) (Cbz-[ξA]LP[NMeY](Me)A-NH2) ; assay system HT29 colon; TGI recorded at > 100 µM

Entry Cc1cn(CC(=S)NCCc2c[nH]c3ccccc23)c(=O)[nH]c1=O ; assay system HT29 colon; TGI recorded at > 100 µM
